Biological target: Fibroblast growth factor 2 (Homo sapiens)
Test: FGF2 binders on small-molecule microarrays, primary screen, biochemical, small-molecule microarray, 635/667 nm fluorescence (AID 1133)
Conditions: small-molecule microarray binding, FGF2, fluorescence 635/667; higher = more signal
Param threshold (0.02) applies to composite z-score; output 1 when value >= threshold, 0 when value < threshold.

**Query** Threshold query (composite z-score >= 0.02) on O=C1O[C@H](c2ccccc2)[C@H](c2ccccc2)N2[C@H]1[C@@H](C(=O)NC[C@H](O)c1ccccc1)[C@]1(C(=O)Nc3ccc(C#CC4=CCCCC4)cc31)[C@H]2c1ccc(OCCO)cc1
**Result** 1

**Query** Threshold query (composite z-score >= 0.02) on COC(=O)Cn1c(C(=O)N2CCCC2)cc2c1C[C@H]1CN(C(=O)c3ccccc3)[C@@](Cc3ccccc3)(C(=O)OC)[C@@H]21
**Result** 0

**Query** Threshold query (composite z-score >= 0.02) on C=CC[C@]1(C(=O)OC)N=C(c2ccc(OCCCO)cc2)O[C@H]1c1ccccc1CN=[N+]=[N-]
**Result** 1

**Query** Threshold query (composite z-score >= 0.02) on CC(C)=C1C(=O)C(c2ccccc2)=C2CN3C(=O)N(CCc4ccccc4)C(=O)[C@]3(Cc3ccccc3)[C@H]21
**Result** 0

**Query** Threshold query (composite z-score >= 0.02) on CO[C@@H]1COC(=O)CC=C[C@H](C)COC(=O)[C@H](Cc2ccccc2)NC(=O)CC=C[C@H]1C
**Result** 1

**Query** Threshold query (composite z-score >= 0.02) on Cc1ccc(S[C@]2(C(=O)O)CC(=O)N(Cc3ccccc3)[C@@H]2c2ccc(CO)cc2)cc1
**Result** 0

**Query** Threshold query (composite z-score >= 0.02) on Cc1ccc(S(=O)(=O)N[C@H]2COC(=O)CC=C[C@H](C)COC(=O)N[C@@H](C)C(=O)CC=C[C@@H]2C)cc1
**Result** 1

###

Test: MM1S cell viability effects, profiling panel, calcein-AM fluorescence, 48 h, basal (AID 1165);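 note: viability of MM1S multiple myeloma cells under basal unstimulated conditions; test concentration not given here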
Details: higher = more signal
Param threshold (0.2) applies to z-score; output criterion met when value >= threshold, criterion not met when value < threshold.

**Query** Threshold query (z-score >= 0.2) on NC(=O)NCC#Cc1ccc2c(c1)[C@]1(C(=O)N2)[C@H](C(N)=O)[C@H]2C(=O)O[C@H](c3ccccc3)[C@H](c3ccccc3)N2[C@@H]1c1ccccc1OCCO
**Result** criterion not met

**Query** Threshold query (z-score >= 0.2) on CO[C@H]1COC(=O)[C@@H](C)NC(=O)CC=C[C@@H](C)[C@H](OC)COC(=O)CC=C[C@@H]1C
**Result** criterion met

**Query** Threshold query (z-score >= 0.2) on CCC(=O)[C@]12O[C@@]3([C@@H]4C(=O)OCC[C@@H]41)N(Cc1ccccc1)C(C)=C(C(=O)OC)[C@@H](c1ccccc1)N3C2=O
**Result** criterion not met

**Query** Threshold query (z-score >= 0.2) on COc1ccc([Si](C)(C)[C@H]2[C@H](CCO)O[C@@]3(C(=O)N(Cc4ccccc4)c4ccc(N5C(=O)c6cccc7cccc5c67)cc43)[C@@H]2C)cc1
**Result** criterion not met

**Query** Threshold query (z-score >= 0.2) on C#CCCCON=C1C[C@@H](O)[C@@H](O)[C@@H]2[C@@H]3C(=O)N(Cc4ccc5c(c4)OCO5)C(=O)[C@@H]3CC[C@@H]12
**Result** criterion met

###

Test: small-molecule binders of probe aLefty1, primary screen, biochemical, small-molecule microarray, 635/667 nm fluorescence (AID 1153);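 note: score merges spot fluorescence with signal-to-noise ratio from the scanned slide images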
Conditions: higher = more signal
quantity_kind: composite z-score
The reply should be a number, written without any unit.

**Query** What composite z-score value was documented for this molecule, C=CC[C@]1(C(=O)NCC(O)CO)N=C(c2ccc(OCCCO)cc2)O[C@H]1c1ccccc1 (some centres not stated) ?
**Result** -0.179

**Query** What composite z-score value was documented for this molecule, C=C(CCCC)/C(=C/C[C@H](OC(=O)c1ccncc1)c1cccc(OCCO)c1)c1cc(C(=O)OC)ccc1OC ?
**Result** 0.0406

**Query** What composite z-score value was documented for this molecule, Cc1ccc(S[C@]2(C(=O)NCCCN(C)C)CC(=O)N(C3CCCCC3)[C@@H]2c2ccc(CO)cc2I)cc1 ?
**Result** 0.0919

**Query** What composite z-score value was documented for this molecule, C[N+](C)(C)CCCC[C@@H]1NC(=O)[C@H]2C[C@@H](C(=O)NCc3ccc(F)cc3)[C@@H](c3cccc(OCCO)c3)N2C1=O ?
**Result** -0.0536

**Query** What composite z-score value was documented for this molecule, COC(=O)C1=CC(c2ccc(CO)cc2)=CC(c2cccs2)N(Cc2cccc(OC(F)(F)F)c2)C=C1C(=O)OC (configuration not stated) ?
**Result** 0.641

**Query** What composite z-score value was documented for this molecule, O=C1O[C@H](c2ccccc2)[C@H](c2ccccc2)N2[C@H]1[C@@H](C(=O)Nc1nc3ccccc3s1)[C@]1(C(=O)Nc3ccc(C#CC4=CCCCC4)cc31)[C@H]2c1ccccc1OCCO ?
**Result** 0.179

**Query** What composite z-score value was documented for this molecule, N#Cc1ccc(NN2C(C(O)CCc3ccccc3)C=CC3C(=O)N(c4ccccc4)C(=O)C32)cc1 (configuration not stated) ?
**Result** 0.272

###

Would you kindly list composite z-score for each of these molecules?
Tested on: Fibrinogen (Alexa647-labelled)
Assay: fibrinogen binders on compound microarrays, profiling panel, artefact control for SMM control-protein annotation, biochemical, small-molecule microarray, 635/667 nm fluorescence (AID 1131);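 note: z-score merges 667 nm fluorescence with per-spot signal-to-noise over triplicate slides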
Conditions: fibrinogen-A647 binding fluorescence, higher = more signal
The reply should be a number, written without any unit.

**Query** What composite z-score value was documented for this molecule, CCOC(=O)C1=CC[C@@H](c2ccccc2)N(S(=O)(=O)c2ccc(C)cc2)[C@H]1C ?
**Result** 1.02

**Query** What composite z-score value was documented for this molecule, COCCCNC(=O)[C@@]1(c2ccc([N+](=O)[O-])cc2)CC(=O)N(C2CCCCC2)[C@@H]1c1ccc(CO)cc1 ?
**Result** -0.523

**Query** What composite z-score value was documented for this molecule, COC(=O)C[C@H]1O[C@]2(C(=O)N(Cc3ccccc3)c3ccc(I)cc32)[C@@H](C)[C@@H]1[Si](C)(C)c1ccc(OC)cc1 ?
**Result** -0.774

**Query** What composite z-score value was documented for this molecule, O=C1O[C@H](c2ccccc2)[C@H](c2ccccc2)N2[C@H]1[C@@H](C(=O)NC[C@H](O)c1ccccc1)[C@]1(C(=O)Nc3ccc(C#CC4=CCCCC4)cc31)[C@H]2c1ccc(OCCO)cc1 ?
**Result** 0.874

**Query** What composite z-score value was documented for this molecule, [N-]=[N+]=NCc1ccccc1C[C@]1(C(=O)N2CCCCC2)N=C(c2ccc(OCCCO)cc2)O[C@H]1c1ccccc1CN=[N+]=[N-] ?
**Result** 0.947

**Query** What composite z-score value was documented for this molecule, CCN1C(C)=C(C(=O)OC)[C@@H](c2ccccc2)N2C(=O)[C@@]3(C(=O)OC)O[C@@]12[C@@H]1C(=O)N(C)C(=O)[C@@H]13 ?
**Result** 0.819

**Query** What composite z-score value was documented for this molecule, COC(=O)[C@H]1[C@@H]2COc3ccccc3[C@H]2N[C@H]1C(=O)OC ?
**Result** 0.428

**Query** What composite z-score value was documented for this molecule, COCCOC(=O)N1C(=O)[C@@]2(c3cc(C#CCNC(N)=O)ccc31)[C@H](c1ccc(OCCO)cc1)N1[C@H](c3ccccc3)[C@H](c3ccccc3)OC(=O)[C@H]1[C@@H]2C(=O)N1CCCCCCC1 ?
**Result** 0.355

**Query** What composite z-score value was documented for this molecule, CC(C)(C)OC(=O)CC[C@@]1(C(=O)NCc2ccccc2)N=C(c2ccc(OCCCO)cc2)O[C@@H]1c1ccccc1 ?
**Result** 0.966

**Query** What composite z-score value was documented for this molecule, COc1ccc([Si](C)(C)[C@H]2[C@H](CCO)O[C@@]3(C(=O)N(Cc4ccc(N5CCCCC5=O)cc4)c4ccccc43)[C@@H]2C)cc1 ?
**Result** 0.903

**Query** What composite z-score value was documented for this molecule, CN1C2C=C(c3ccc(CO)cc3)C(C3C(=O)N(C(N)=O)C(=O)C32)C1c1cccs1 (configuration not stated) ?
**Result** -0.25

**Query** What composite z-score value was documented for this molecule, CCC(=O)[C@]12O[C@@]3([C@@H]4C(=O)OCC[C@@H]41)N(CC)C(C)=C(C(=O)OC)[C@@H](c1ccccc1)N3C2=O ?
**Result** -0.62

**Query** What composite z-score value was documented for this molecule, COC(=O)C1=CC(c2ccc(CO)cc2)=CC(C2CC2)N(Cc2sc3ccccc3c2Cl)C=C1C(=O)OC (configuration not stated) ?
**Result** 0.896

**Query** What composite z-score value was documented for this molecule, Cc1ccc(S(=O)(=O)N2[C@@H](c3ccccc3)C(C(=O)O)=CC[C@H]2c2ccccc2)cc1 ?
**Result** 0.175

**Query** What composite z-score value was documented for this molecule, C=CC[C@]1(C(=O)NCC(O)CO)N=C(c2ccc(OCCCO)cc2)O[C@H]1c1ccccc1 (some centres not stated) ?
**Result** 0.106

**Query** What composite z-score value was documented for this molecule, CCCCCCc1nc(-c2cc(C)c(OC)c(C)c2)cc2c1[Si](C(C)C)(C(C)C)O[C@H]2c1ccccc1 ?
**Result** -0.399

**Query** What composite z-score value was documented for this molecule, CO[C@H]1COC(=O)[C@@H](C)NC(=O)CC=C[C@@H](C)[C@H](OC)COC(=O)CC=C[C@@H]1C ?
**Result** -1.07

**Query** What composite z-score value was documented for this molecule, COc1cc2c(cc1OC)CN(C(=O)[C@H]1[C@@H]3C(=O)O[C@@H](c4ccccc4)[C@@H](c4ccccc4)N3[C@@H](c3ccc(O)cc3)[C@]13C(=O)Nc1ccc(C#CC4(O)CCCCCC4)cc13)CC2 ?
**Result** 0.86

**Query** What composite z-score value was documented for this molecule, COC(=O)C(CC#Cc1ccc2c(c1)[C@]1(C(=O)N2)[C@H](C(=O)N2CCCCCCC2)[C@H]2C(=O)O[C@H](c3ccccc3)[C@H](c3ccccc3)N2[C@@H]1c1ccc(O)cc1)C(=O)OC ?
**Result** -2.05

**Query** What composite z-score value was documented for this molecule, C[C@@H]1CC[C@H]2C(=O)N3[C@@H](CC[C@@H](C)[C@@H]3c3cccc(N4CCOCC4)c3)C(=O)N2[C@H]1c1cccc(N2CCOCC2)c1 ?
**Result** 0.815

**Query** What composite z-score value was documented for this molecule, COc1ccc(C(O)C2C=CC3C(=O)N(C)C(=O)C3N2N2CCCCC2)cc1OCc1ccccc1 (configuration not stated) ?
**Result** 0.838

**Query** What composite z-score value was documented for this molecule, CSCC[C@@H]1NC(=O)CC=C[C@@H](C)COC(=O)[C@H](CCSC)NC(=O)CC=C[C@@H](C)COC1=O ?
**Result** 0.017

**Query** What composite z-score value was documented for this molecule, CO[C@@H]1COC(=O)[C@H](COCc2ccccc2)NC(=O)CC=C[C@@H](C)[C@H](OC)COC(=O)[C@H](COCc2ccccc2)NC(=O)CC=C[C@H]1C ?
**Result** -0.201

**Query** What composite z-score value was documented for this molecule, COCCOC(=O)N1C(=O)[C@@]2(c3cc(C#CCCO)ccc31)[C@H](C(=O)N1CCCCCCC1)[C@H]1C(=O)O[C@H](c3ccccc3)[C@H](c3ccccc3)N1[C@@H]2c1ccc(O)cc1 ?
**Result** 0.555

**Query** What composite z-score value was documented for this molecule, CCOC(=O)C[C@H]1[C@H](OC(=O)Cc2ccc3c(c2)OCO3)[C@@H](NC(=O)c2ccc3ccccc3c2)c2cc(OCCCO)ccc2N1C(=O)Cc1ccc(OC)cc1 ?
**Result** 0.561

**Query** What composite z-score value was documented for this molecule, CN(C)CCCC[C@@H]1NC(=O)[C@@H]2C[C@H](C(=O)O)[C@H](c3ccc(O)cc3)N2C1=O ?
**Result** 0.166

**Query** What composite z-score value was documented for this molecule, COc1cccc([C@@H]2[C@@H](C)CC[C@H]3C(=O)N4[C@H](c5cccc(OC)c5)[C@@H](C)CC[C@H]4C(=O)N23)c1 ?
**Result** 0.817
